System: SF-295 CNS
procedure.summary: NCI tumour cell line growth inhibition, 48 h
reported.metric: TGI

Prompt: Using known records, supply TGI for CSc1ncnc2c1ncn2C1CC(Oc2ccc(C)cc2)C(COc2ccc(C)cc2)O1 (stereo unspecified)
Response: > 100 µM

Prompt: State its TGI for this molecule: NC(N)=N/N=C(\c1nc2ccc([N+](=O)[O-])cc2[nH]c1=O)C(O)c1ccc([N+](=O)[O-])cc1 (stereo unspecified)
Response: > 100 µM

Prompt: Tell us which TGI value is on record for CN1C(=O)c2cccc3cc([N+](=O)[O-])cc(c23)C1=O
Response: > 10 µM

Prompt: Using known records, supply TGI for COc1ccccc1CCc1cc(OC)c(OC)c(OC)c1
Response: > 100 µM

Prompt: Provide measured TGI value, entry: O=C(NI1OC(=O)c2ccccc21)c1ccc(Cl)cc1
Response: > 100 µM

Prompt: For the molecule Cc1nc(-c2cc3cc([N+](=O)[O-])ccc3oc2=O)cs1 , report TGI.
Response: > 100 µM

Prompt: For the molecule COc1cccc(-c2ccc3c4c2O[C@H]2C(=O)CC[C@@]5(O)[C@@H](C3)N(CC3CC3)CC[C@]425)c1 , give its reported TGI.
Response: 32.6 µM

Prompt: Supply recorded TGI for O=C(N/N=C\c1cccc2c([N+](=O)[O-])cccc12)Nc1ccccc1 here.
Response: 32.5 µM

Prompt: Look up and report measured TGI for this entry: COc1cc(C2C(Cl)C(=O)N2NC(=O)c2ccc(NC(C)=O)cc2)cc(OC)c1OC (stereo unspecified)
Response: > 100 µM

Prompt: Specify reported TGI for the molecule shown: Cc1ccc([N+](=O)[O-])cc1S(=O)(=O)Nc1ccc(C2=NNC(c3ccccc3)C2)cc1 (stereo unspecified)
Response: 21.7 µM

Prompt: Identify measured TGI corresponding to CCCN1CCC(=O)N(CCC(F)(F)C(F)(F)C(F)(F)C(F)(F)C(F)(F)C(F)(F)F)C1=S
Response: > 100 µM
